B1: glmS ribozyme (parent)
chain: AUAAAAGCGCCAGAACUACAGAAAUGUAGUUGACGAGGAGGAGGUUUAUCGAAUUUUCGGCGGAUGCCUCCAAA

# Variants of: B1
# experiment description: self-cleavage kobs at 2500 uM GlcN6P; higher = faster cleavage; RNA array
# experimental setup: with glucosamine-6-phosphate
Fewer inactive variants are shown than the library holds.
experimental readout: self-cleavage kobs at 2500 uM GlcN6P (s⁻¹)
A number alone suffices; assume s⁻¹.

Observe how each entry below is paired with its result.
{"columns": ["mutations", "self-cleavage kobs at 2500 uM GlcN6P / s⁻¹"],
 "data": [
  ["A6U U56A", "5.83e-05"],
  ["A39C G66C", 0.00104],
  ["A14G A39U C67A", 0.0121],
  ["A39G C68U", 0.00387],
  ["U31A U55G C67U", 0.000519],
  ["G29U C71A", 0.000288],
  ["G43A U55G", "4.42e-05"],
  ["A14U G32C C67A", "3.21e-05"],
  ["U56G G66A", 0.00405],
  ["A14G A42C", "1.97e-05"]
]}

Exercise: GET /values?readout=self-cleavage kobs at 2500 uM GlcN6P&item= U31C A53G
Key: 0.00309

Exercise: Please give the result for A14U U65G too.
Key: 0.000875

Attribution: the supplement of paper PMC7125110
